# assayed system: T1, VLP2 (virus-like particles of AAV2) (AAV2, UniProt P03135 1-735; P03135 1-598; P03135 1-533)
# T1 construct: Empty AAV2 capsid; background says about 60 protein molecules, VP1:VP2:VP3 = 1:1:10; Immobilised on the ELISA plate
# T1 sequence (P03135 whole entry, chain 1 of 3): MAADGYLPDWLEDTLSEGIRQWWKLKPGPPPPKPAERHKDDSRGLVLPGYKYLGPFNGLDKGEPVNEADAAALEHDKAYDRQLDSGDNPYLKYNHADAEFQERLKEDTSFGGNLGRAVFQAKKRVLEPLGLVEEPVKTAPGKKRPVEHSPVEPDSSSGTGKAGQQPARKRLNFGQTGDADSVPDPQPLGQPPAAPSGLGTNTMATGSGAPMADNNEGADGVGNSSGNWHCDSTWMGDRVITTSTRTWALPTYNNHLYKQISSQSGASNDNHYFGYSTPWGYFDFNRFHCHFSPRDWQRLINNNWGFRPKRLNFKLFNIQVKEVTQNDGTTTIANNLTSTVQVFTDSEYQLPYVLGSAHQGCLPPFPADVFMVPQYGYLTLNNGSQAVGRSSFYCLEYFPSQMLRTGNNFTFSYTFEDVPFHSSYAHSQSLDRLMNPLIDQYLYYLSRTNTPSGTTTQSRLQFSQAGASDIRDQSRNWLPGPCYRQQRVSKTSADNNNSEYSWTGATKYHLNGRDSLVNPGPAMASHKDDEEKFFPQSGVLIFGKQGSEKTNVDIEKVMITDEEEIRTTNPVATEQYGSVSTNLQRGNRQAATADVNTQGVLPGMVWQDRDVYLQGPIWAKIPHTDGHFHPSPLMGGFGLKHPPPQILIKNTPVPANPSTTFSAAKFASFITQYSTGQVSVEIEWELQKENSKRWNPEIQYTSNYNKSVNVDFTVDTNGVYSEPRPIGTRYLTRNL
# T1 sequence (P03135 139-735, tags left off, chain 2 of 3): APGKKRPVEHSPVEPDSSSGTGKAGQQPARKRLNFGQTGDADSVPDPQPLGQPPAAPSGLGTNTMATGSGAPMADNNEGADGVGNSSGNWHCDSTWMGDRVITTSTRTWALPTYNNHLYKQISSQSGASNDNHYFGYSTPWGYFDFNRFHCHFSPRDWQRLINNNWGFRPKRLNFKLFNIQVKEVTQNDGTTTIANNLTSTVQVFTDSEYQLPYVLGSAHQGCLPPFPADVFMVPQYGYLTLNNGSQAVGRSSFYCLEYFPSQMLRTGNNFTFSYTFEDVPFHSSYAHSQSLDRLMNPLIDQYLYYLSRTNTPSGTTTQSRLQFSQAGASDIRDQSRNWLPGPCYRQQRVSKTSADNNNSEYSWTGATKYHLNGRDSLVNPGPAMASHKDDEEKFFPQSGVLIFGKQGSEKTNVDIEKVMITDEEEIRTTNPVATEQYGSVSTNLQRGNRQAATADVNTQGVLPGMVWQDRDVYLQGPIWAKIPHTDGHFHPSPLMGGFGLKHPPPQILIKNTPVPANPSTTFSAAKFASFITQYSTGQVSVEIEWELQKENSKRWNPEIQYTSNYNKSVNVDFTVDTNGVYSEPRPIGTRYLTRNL
# T1 sequence (P03135 203-735, chain 3 of 3): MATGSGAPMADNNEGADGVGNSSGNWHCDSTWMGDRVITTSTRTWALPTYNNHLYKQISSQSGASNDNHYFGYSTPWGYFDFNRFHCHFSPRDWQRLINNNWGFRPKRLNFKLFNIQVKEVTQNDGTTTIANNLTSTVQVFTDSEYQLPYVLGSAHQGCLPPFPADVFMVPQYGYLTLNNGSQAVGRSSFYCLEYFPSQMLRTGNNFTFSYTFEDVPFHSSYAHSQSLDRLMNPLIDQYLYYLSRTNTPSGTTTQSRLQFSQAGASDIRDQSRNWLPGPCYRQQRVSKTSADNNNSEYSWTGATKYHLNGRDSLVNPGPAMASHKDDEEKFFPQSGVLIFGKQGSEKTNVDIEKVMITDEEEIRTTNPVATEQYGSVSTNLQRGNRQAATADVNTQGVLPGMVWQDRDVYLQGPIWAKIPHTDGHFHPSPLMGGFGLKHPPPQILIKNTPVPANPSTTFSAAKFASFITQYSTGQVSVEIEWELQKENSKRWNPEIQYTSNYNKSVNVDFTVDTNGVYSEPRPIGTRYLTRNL
# test summary: ELISA on VLP2; A450 after 66.1°C 15 min / untreated
property: Residual activity [%] (%)
Lab book: enter the figure in %, no units written.

INSERT INTO assay_data (binder, property, unit_string, reported) VALUES
  ('AAV-binding protein No. 49 (Tyr331Cys, Thr343Met, Tyr355Cys) (receptor) MGSAGESVQITLPKNEVQLNACVLQEPPKGETYMYDWQLITHPRDCSGEMEGKHSQILKLSKLTPGLYEFKVIVEGQNAHGEGYVNVTVKPEPRKNRPPIAIVSPQFQEISLPTTSTVIDGSQSTDDDKIVQYHWEELKGPLREEKISEDTAILKLSKLVPGNYTFSLTVVDSDGATNSTTANLTVNKAVDHHHHHH', 'Residual activity [%]', '%', 57.3);

We next turn to a different binder, shown below.
Which Residual activity [%] is listed for AAV-binding protein No. 47 (Asn329Tyr, Tyr377Cys, Arg406Ser) (receptor) MGSAGESVQITLPKNEVQLYAYVLQEPPKGETYTYDWQLITHPRDYSGEMEGKHSQILKLSKLTPGLCEFKVIVEGQNAHGEGYVNVTVKPEPRKNSPPIAIVSPQFQEISLPTTSTVIDGSQSTDDDKIVQYHWEELKGPLREEKISEDTAILKLSKLVPGNYTFSLTVVDSDGATNSTTANLTVNKAVDHHHHHH ?
58.7
